// data source = PubChem BioAssay AID1159580

experiment: chemical genetic growth profiling, strain panel (AID 1159580);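 also: tested at 20 µM; growth read once vehicle control cultures reached saturation at 30 °C; 1 = growth at the plate median or of vehicle wells; lower values mean less growth of the strain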; conditions: S. cerevisiae deletion strains, growth OD, locus YPR163C, strain tif3, hits give low values
The whole screen tested about 5,500 compounds, of which about 2,000 (36%) were called active. Not shown: some 18% with an inconclusive outcome. The list shows a part of the results.
Quick list: normalized growth per entry.
endpoint.name: normalized growth

compound	assay.result
CO[C@@H]1C[C@H](O[C@H]2CC[C@]3(C)C4CC[C@]5(C)[C@@H](C6=CC(=O)OC6)CC[C@]5(O)[C@@H]4CC[C@]3(O)C2)O[C@H](C)[C@@H]1O (stereo partly specified)	0.993
C[C@@H]1O[C@@H](O[C@H]2CC[C@]3(C=O)C4CC[C@]5(C)[C@@H](C6=CC(=O)OC6)CC[C@]5(O)C4CC[C@]3(O)C2)[C@H](O)[C@H](O)[C@H]1O (stereo partly specified)	0.983
NC[C@H]1O[C@H](OC2[C@@H](N)C[C@@H](N)[C@H](O[C@H]3O[C@H](CO)[C@@H](O)[C@H](N)[C@H]3O)[C@H]2O)[C@H](O)[C@@H](O)[C@@H]1O (stereo partly specified)	0.978
C[C@@H]1CC[C@@]23CCC4(C)[C@@](C=CC5[C@@]6(C)CC[C@H](O)C(C)(C)C6CC[C@]54C)(OC2=O)C3[C@H]1C (stereo partly specified)	1
CC(=O)OC1CC[C@@]2(C)C(CCC3C2CC[C@]2(C)C(C4=CC(=O)OC4)C(OC(C)=O)CC32O)C1 (stereo partly specified)	1.02
C[C@]12CC[C@H](O)C[C@H]1CCC1C2CC[C@]2(C)[C@@H](C3=CC(=O)OC3)[C@@H](O)C[C@]12O (stereo partly specified)	0.997
NS(=O)(=O)c1cc2c(cc1C(F)(F)F)NC(Cc1ccccc1)NS2(=O)=O (stereo unspecified)	1.01
C[C@@H]1CC[C@@]23CCC4(C)[C@@](C=CC5[C@@]6(C)CCC(=O)C(C)(C)C6CC[C@]54C)(OC2=O)C3[C@H]1C (stereo partly specified)	1.01
COC1CC(O[C@H]2CC[C@]3(C=O)C4CC[C@]5(C)C(C6=CC(=O)OC6)CC[C@]5(O)C4CC[C@]3(O)C2)OC(C)C1O (stereo partly specified)	0.993
C[C@H]1OC(O[C@H]2[C@@H](O)CC(O[C@H]3[C@@H](O)C[C@H](O[C@H]4CC[C@]5(C)C6CC[C@]7(C)[C@@H](C8=CC(=O)OC8)[C@@H](O)C[C@]7(O)[C@@H]6CC[C@@H]5C4)O[C@@H]3C)O[C@@H]2C)C[C@H](O)C1O (stereo partly specified)	0.995
CC[C@@]1(O)C(=O)OCc2c1cc1n(c2=O)Cc2cc3cc(O)ccc3nc2-1	0.991
CC(C)(C)NCC(O)COc1cccc2c1C[C@H](O)[C@H](O)C2 (stereo partly specified)	0.991
C[C@H]1O[C@@H](O[C@H]2[C@@H](O)C[C@H](O[C@H]3[C@@H](O)C[C@H](O[C@H]4CC[C@]5(C)C6C[C@@H](O)[C@]7(C)[C@@H](C8=CC(=O)OC8)CC[C@]7(O)C6CC[C@@H]5C4)O[C@@H]3C)O[C@@H]2C)C[C@H](O)[C@@H]1O (stereo partly specified)	0.977
CO[C@H]1[C@H](O)[C@@H](O[C@H]2CC[C@]3(C=O)C4CC[C@]5(C)[C@@H](C6=CC(=O)OC6)CC[C@]5(O)C4CC[C@@H]3C2)O[C@@H](C)[C@@H]1O (stereo partly specified)	1
CC12CCC3C(CCC4(O)CC(O)CCC34/C=N/NC(N)=O)C1(O)CCC2C1=CC(=O)OC1 (stereo unspecified)	0.989
CC[C@@]1(O)C(=O)OCc2c1cc1n(c2=O)Cc2cc3ccccc3nc2-1	0.276
